- Subject of test: HLA-A*02:01 (Homo sapiens, UniProt P04439, D140Y/D185E/D98H/E176V/E277Q/G131W/G231S/I119V/I121R/I166T/I218V/L300P/L318F/N151K/N90K/P208A/P217A/Q86G/Q94H/R138H/R169H/T345S)
- Test protocol: MHC binding assay (UV-ligand exchange, beta2m ELISA, peptide exchange yield)
- Study conditions: binding to HLA-A*02:01 ranged by peptide exchange yield, β2m ELISA
Observable: Peptide exchange (MHC class I binding score)

Record 144 (TAVALLRLL; listed as Homo sapiens) [compound 144] . Reported Peptide exchange (MHC class I binding score): “++” (≥20%=++)

Record 116 (SMMDPNHFL; listed as Homo sapiens) [compound 116] . Reported Peptide exchange (MHC class I binding score): “++++” (>75%=++++)

Record 138 (NIFPNPEATFV; listed as Homo sapiens) [compound 138] . Reported Peptide exchange (MHC class I binding score): “+++” (≥50=+++)

Record 124 (ALFEESGLIRI; listed as Homo sapiens) [compound 124] . Reported Peptide exchange (MHC class I binding score): “+++” (≥50=+++)

Record 133 (ILDDVSLTHL; listed as Homo sapiens) [compound 133] . Reported Peptide exchange (MHC class I binding score): “++” (≥20%=++)

Record 111 (LLLAAARLAAA; listed as Homo sapiens) [compound 111] . Reported Peptide exchange (MHC class I binding score): “+++” (≥50=+++)

Record 139 (SIDRNPPQL; listed as Homo sapiens) [compound 139] . Reported Peptide exchange (MHC class I binding score): “+++” (≥50=+++)

Record 99 (ALESFLKQV; listed as Homo sapiens) [compound 99] . Reported Peptide exchange (MHC class I binding score): “+++” (≥50=+++)

Record 58 (RQYPWGVVQV; listed as Homo sapiens) [compound 58] . Reported Peptide exchange (MHC class I binding score): “++” (≥20%=++)

Record 112 (LLSDVRFVL; listed as Homo sapiens) [compound 112] . Reported Peptide exchange (MHC class I binding score): “+++” (≥50=+++)

Continuing:
Record 22 (ILSTEIFGV; listed as Homo sapiens) [compound 22] . Reported Peptide exchange (MHC class I binding score): “+++” (≥50=+++)

Record 113 (LMMSEDRISL; listed as Homo sapiens) [compound 113] . Reported Peptide exchange (MHC class I binding score): “+++” (≥50=+++)

Record 29 (YILPFSEVL; listed as Homo sapiens) [compound 29] . Reported Peptide exchange (MHC class I binding score): “++++” (>75%=++++)

Record 48 (LLDENGVLKL; listed as Homo sapiens) [compound 48] . Reported Peptide exchange (MHC class I binding score): “+++” (≥50=+++)

Record 7 (ALVDIVRSL; listed as Homo sapiens) [compound 7] . Reported Peptide exchange (MHC class I binding score): “+++” (≥50=+++)

Record 95 (ALADDDFLTV; listed as Homo sapiens) [compound 95] . Reported Peptide exchange (MHC class I binding score): “+++” (≥50=+++)

Record 114 (SLFPHNPQFI; listed as Homo sapiens) [compound 114] . Reported Peptide exchange (MHC class I binding score): “+++” (≥50=+++)

Record 23 (KLDSSGGAVQL; listed as Homo sapiens) [compound 23] . Reported Peptide exchange (MHC class I binding score): “++” (≥20%=++)

Record 132 (FLWAGGRASYGV; listed as Homo sapiens) [compound 132] . Reported Peptide exchange (MHC class I binding score): “+++” (≥50=+++)

Record 105 (FLSEVFHQA; listed as Homo sapiens) [compound 105] . Reported Peptide exchange (MHC class I binding score): “+++” (≥50=+++)

Record 21 (GLVDGRDLVIV; listed as Homo sapiens) [compound 21] . Reported Peptide exchange (MHC class I binding score): “+++” (≥50=+++)

Record 127 (ALSDLALHFL; listed as Homo sapiens) [compound 127] . Reported Peptide exchange (MHC class I binding score): “++++” (>75%=++++)

Record 53 (LLWDPSTGKQV; listed as Homo sapiens) [compound 53] . Reported Peptide exchange (MHC class I binding score): “+++” (≥50=+++)

Record 64 (TLFSEPKFAQV; listed as Homo sapiens) [compound 64] . Reported Peptide exchange (MHC class I binding score): “++++” (>75%=++++)

Record 24 (KLSENAGIQSL; listed as Homo sapiens) [compound 24] . Reported Peptide exchange (MHC class I binding score): “++” (≥20%=++)
